# METHOD: survival after telomere uncapping, modulators, primary screen, cell-based (AID 1259312);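 also: virus expresses mutant telomerase RNA that uncaps telomeres and kills cells; compound added 2 days after infection so exposure lasts 3 days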
# MEASUREMENT CONTEXT: HCT116 + Ad-hTR-mut, MTT, 5 d; at 10 µM, stronger effect = higher value
In all, about 4,500 compounds went through this assay and about 200 (4.4%) were called active. Only a selection was taken, and actives are over-represented in it overall.
# fold change per record follows
Response field accepts a number only; no unit should be typed.

Here's what some known entries look like.
CCCCCCCCCCCC(=O)Nc1nccs1 :: -1.36
O=C(O)c1ccn[nH]1 :: 3.42
COC(=O)CNC(=O)c1ccn[nH]1 :: -1.28
O=[N+]([O-])c1ccccc1S(=O)(=O)n1cnc2ccccc21 :: 3.82
O=[N+]([O-])c1ccccc1-n1ccnc1 :: -1.71
Brc1ccc2nc(SCCOc3ccccc3)[nH]c2c1 :: -1.46

Could you now look at the following molecule, please?
Assign fold change to the following record: `CCCCc1ccc(-c2csc(N)c2C#N)cc1` -1.78

###

# METHOD: survival after telomere uncapping, modulators, primary screen, cell-based (AID 1259312)
# MEASUREMENT CONTEXT: HCT116 + Ad-hTR-mut, MTT, 5 d; at 10 µM
Among all 4,500 compounds or so, about 200 (4.4%) were called active.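 Rule for the calls: active = cell survival measured by absorbance rises more than 2.5-fold over infected cells without compound; inactive = the rest.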 The full list was thinned out, with actives kept by preference.
Give your call using only these classes: active, inactive

COCc1[nH]nc2c1C1(CCN(C)CC1)C(C#N)=C(N)O2 :: inactive
N#CC1=C(N)OC2=C(C(=O)CCC2)C12C(=O)Nc1ccccc12 (stereo not given) :: inactive
Cc1[nH]nc2c1C1(C(=O)Nc3cc(Br)ccc31)C(C#N)=C(N)O2 (stereo not given) :: active
Cc1[nH]nc2c1C1(CCOCC1)C(C#N)=C(N)O2 :: inactive
N#CC1(C#N)C(c2ccc(O)cc2)C(C(=O)c2ccccc2)N2c3ccccc3C=CC21 (stereo not given) :: inactive

Check the results log: what was the call for `Cc1ccc(C(c2c(C)[nH]n(-c3ccccc3)c2=O)c2c(C)[nH]n(-c3ccccc3)c2=O)o1` ? inactive

In this assay, the call recorded for N#CC1(C#N)C(c2c(F)cccc2Cl)[C@@H](C(=O)c2ccc(F)cc2)N2c3ccccc3C=C[C@@H]21 (stereo not given in full) was what? active

I'd appreciate the recorded outcome for N#CC1=C(N)OC2=C(C(=O)CCC2)C12C(=O)Nc1cc(Br)ccc12 (stereo not given) from this test. inactive

GET /call?item= N#CC1(C#N)C(c2ccc(Cl)cc2Cl)C(C(=O)c2ccccc2)N2c3ccccc3C=CC21 (stereo not given) returns the recorded outcome of this test. inactive

Write down the call the test reported for this molecule. Item: `CN1CCC2(CC1)C(C#N)=C(N)Oc1n[nH]c(C(=O)OC(C)(C)C)c12` inactive

###

# METHOD: survival after telomere uncapping, modulators, primary screen, cell-based (AID 1259312)
# MEASUREMENT CONTEXT: HCT116 + Ad-hTR-mut, MTT, 5 d; at 10 µM, stronger effect = higher value
Among all 4,500 compounds or so, about 200 (4.4%) were called active. The sample as a whole holds a higher share of actives than the screen did.
Listed here are molecules together with their documented fold change.

O=S(=O)(c1ccc(Cl)cc1)N1CCOC1C(Cl)(Cl)Cl (stereo not drawn) :: -2.17 (inactive)

Query molecule follows.
Respond only with fold change recorded for CC1CCCN(S(=O)(=O)c2cc(Cl)ccc2Cl)C1 (stereo not drawn) 3.18 (active)

###

# METHOD: survival after telomere uncapping, modulators, primary screen, cell-based (AID 1259312)
# MEASUREMENT CONTEXT: HCT116 + Ad-hTR-mut, MTT, 5 d; at 10 µM
In all, about 4,500 compounds went through this assay and about 200 (4.4%) were called active.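 Rule for the calls: active = cell survival measured by absorbance rises more than 2.5-fold over infected cells without compound; inactive = the rest.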 The full list was thinned out, with actives kept by preference.
Select the correct class. Options are active, inactive and nothing else.

Reference set (3 entries):
O=[N+]([O-])c1cc(Br)cc(C=Nc2ccc(I)cc2)c1O :: inactive
Nc1c(Cl)cc(-c2nc3ccccc3o2)cc1Cl :: inactive
O=S(=O)(c1ccc(Cl)cc1)N1CCCc2ccccc21 :: inactive

What classification did `CS(=O)(=O)Nc1ccc(Br)cn1` end up with in this test? inactive

Given `Cc1cc(NC(=O)c2n[nH]c(=O)c3ccccc23)no1` , state the outcome it received in this test. inactive

###

# METHOD: survival after telomere uncapping, modulators, primary screen, cell-based (AID 1259312)
# MEASUREMENT CONTEXT: HCT116 + Ad-hTR-mut, MTT, 5 d; at 10 µM
Out of some 4,500 compounds screened, about 200 (4.4%) were called active.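 The calls were made as follows: active = cell survival measured by absorbance rises more than 2.5-fold over infected cells without compound; inactive = the rest.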 The sample as a whole holds a higher share of actives than the screen did.
Would you mind answering with one of these outcomes? active, inactive

Fill in: this test's call for Brc1ccc(C(Br)C(Br)c2ccccc2Br)cc1 (stereo unspecified) is ___ inactive

Check the results log: what was the call for CCCCCCC1(C)OCO/C1=C\C[N+](C)(C)C (stereo unspecified) ? inactive

Record request — test call for `CC(C)=NNc1nccc2ccccc12` inactive

What was the test verdict on `O=c1[nH]nc(CSCc2csc(-c3ccccc3)n2)[nH]1` ? inactive

Fill in: this test's call for `COC(=O)c1nc2ccc(OC)cc2s1` is ___ inactive

Given `COc1ccc(-c2nc3sc(-c4ccc(OC)c(OC)c4)nc3s2)cc1OC` , state the outcome it received in this test. inactive

###

Listed here are compounds together with their documented fold change.
# METHOD: survival after telomere uncapping, modulators, primary screen, cell-based (AID 1259312);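 also: virus expresses mutant telomerase RNA that uncaps telomeres and kills cells; compound added 2 days after infection so exposure lasts 3 days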
# MEASUREMENT CONTEXT: HCT116 + Ad-hTR-mut, MTT, 5 d; at 10 µM, stronger effect = higher value
The campaign covered roughly 4,500 compounds. About 200 (4.4%) were called active. Shown is part of a subset that was picked to be rich in actives.

CCCc1ccn(CCSCC)c1-c1cccs1 :: -2.47 (inactive)

For the compound `O=c1[nH]nc(C[N+](=O)[O-])c2ccccc12` , report fold change. 1.05 (inactive)

State, in one line, measured fold change of `Cn1c(-c2ccccc2)c(NC(=O)c2ccccc2Cl)c(=O)n1C` -1.22 (inactive)

Complete the entry with fold change for `C[C@H](CCC(=O)O)[C@H]1CC[C@H]2[C@@H]3[C@H](O)C[C@@H]4C[C@H](O)CC[C@]4(C)[C@H]3C[C@H](O)[C@]12C` -1.01 (inactive)

Provide measured fold change value, entry: `O=c1n(Cc2ccon2)c2ccccc2n1Cc1ccon1` -2.68 (inactive)

Item `Clc1cccc(Cl)c1-c1noc(CSc2nc3ccccc3s2)n1` : provide fold change -1.38 (inactive)

Tell us which fold change value is on record for `N#CCS/C(SCC(=O)c1ccc2c(c1)OCO2)=C(/C#N)C(=O)c1ccc2c(c1)OCO2` 2.84 (active)

###

# METHOD: survival after telomere uncapping, modulators, primary screen, cell-based (AID 1259312);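 also: virus expresses mutant telomerase RNA that uncaps telomeres and kills cells; compound added 2 days after infection so exposure lasts 3 days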
# MEASUREMENT CONTEXT: HCT116 + Ad-hTR-mut, MTT, 5 d; at 10 µM, stronger effect = higher value
Hit rate of the full screen: of about 4,500 compounds, about 200 (4.4%) were called active. Only a selection was taken, and actives are over-represented in it overall.
Response key: 1 means fold change >= -1; -1 means fold change < -1.

Examples from the recorded data:
O=S(=O)(Nc1ccncc1)c1ccc(Cl)cc1 :: -1
CCc1cc(C=C(Cl)Cl)oc(=O)c1C :: -1

Decide: is the reported value of fold change for `Cc1cc(C)n(C(=O)c2nn(C)cc2[N+](=O)[O-])n1` equal to or greater than -1? 1

Exam item: decide whether the reported fold change for CC(C(=O)Nn1cnnc1)N1C(=O)c2ccccc2C1=O (configuration not stated) is at least -1. -1

# check: fold change of `O=C1c2cccc(Cl)c2C(=O)c2cccc(Cl)c21` is greater than or equal to -1 -1

Quick check, fold change >= -1? `c1cnc(SCc2ccc3nsnc3c2)nc1` 1

Form field: fold change at least -1? Entry: `Brc1ccc(-c2csc(Nc3ccccc3)n2)cc1` -1

###

This listing pairs compounds with measured fold change.
# METHOD: survival after telomere uncapping, modulators, primary screen, cell-based (AID 1259312);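 also: virus expresses mutant telomerase RNA that uncaps telomeres and kills cells; compound added 2 days after infection so exposure lasts 3 days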
# MEASUREMENT CONTEXT: HCT116 + Ad-hTR-mut, MTT, 5 d; at 10 µM, stronger effect = higher value
Among all 4,500 compounds or so, about 200 (4.4%) were called active. Many of the other results were omitted from the sample, so actives are more common in it than they were.
Give the value as a plain number.

CC1Oc2ccc(S(=O)(=O)NCC3CCCO3)cc2NC1=O (stereo not given) :: -1.21
c1ccc(-c2csc(N3CCN(C(c4ccccc4)c4ccccc4)CC3)n2)cc1 :: 1.15
O=c1[nH]snc1N1CCOCC1 :: -1.16
O=S(=O)(Oc1ccc(N=Cc2cccs2)cc1)c1ccc(Cl)cc1 :: 2.24

Fill in reported fold change for this entry: `CN1C(=O)c2ccc([N+](=O)[O-])cc2C1=O` 1.34

Assign fold change to the following record: CN1CC=C2C(C#N)=C(N)C(C#N)(C#N)C(c3ccc(F)cc3)[C@H]2C1 (stereo not given in full) -37.3

Look up and report measured fold change for this entry: `C/C(=N/Nc1ccc([N+](=O)[O-])cc1)c1ccc(/C(CCl)=N/Nc2ccc([N+](=O)[O-])cc2)s1` -1.04

Annotate the compound `N#Cc1c(C(F)(F)F)cc(-c2ccccc2)[nH]c1=S` with its measured fold change. -1.58

Answer with the recorded fold change of `COC(=O)C1=C(C(=O)OC)SC2(S1)C(C(=O)OC)=C(C(=O)OC)SC1=C2c2cc(OC)ccc2NC1(C)C` only. 1.52

Provide one value: measured fold change of `O=C1CCCN1c1ccc(S(=O)(=O)Nc2ccc3oc4c(c3c2)CCCC4)cc1` 1.03

Give me measured fold change, please, for this compound: `N#Cc1c(C(F)(F)F)cc(-c2cccs2)oc1=S` -2.59

Report fold change for `CC(C)(C)Sc1c(Br)cccc1Br` -2.29

Note down fold change recorded for COc1ccc(C2C3CCC=C3C(C#N)=C(N)C2(C#N)C#N)cc1 (stereo not given) -1.15

Please give measured fold change of the following entry: `O=[N+]([O-])c1ccccc1Nc1ccccc1` 1.12

Give the measured fold change for CCOC(=O)C1=C(C)OC(N)=C(C#N)C1c1cccs1 (stereo not given) 2.09

The reported measurements were obtained from PubChem BioAssay AID1259312.
